# self-cleavage per entry
B1: HDV Ribozyme (parent)
chain: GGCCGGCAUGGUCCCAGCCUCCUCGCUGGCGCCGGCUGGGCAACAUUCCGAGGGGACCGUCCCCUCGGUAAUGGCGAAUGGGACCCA

Variants of: B1
Assay: self-cleavage, relative activity (ratio to wild type); higher = more cleavage; co-transcriptional
endpoint_label: self-cleavage

| alteration | observed_measurement |
| --- | --- |
| U9G G67U | 1.25 |
| A8U G17C | 0.0755 |
| C61U C75U | 0.254 |
| C26A C86G | 0.888 |
| G55A U60A | 0.99 |
| G1U C3U | 0.696 |
| C21U A83G | 0.124 |
| C4U C86A | 0.875 |
| A71G A83G | 1.09 |
| U46A U47G | 0.369 |
| U12C A87C | 0.479 |
| U12A U65A | 0.431 |
| U69G C85A | 1.18 |
| G6A U20A | 0.0536 |
| C22G G53C | 0 |
| A43U G74A | 0.261 |
| C24A G52C | 0.803 |
| G17A U47A | 0.554 |
| G1A A78U | 0.0449 |
| A56G G82U | 0.244 |
| G17A C24A | 0.089 |
| C44G G59C | 0.95 |
| U27A A45U | 0.458 |
| C14G A43U | 0.138 |
| C21G C48A | 0 |
| A78C U79G | 0.113 |
| C7U C75U | 0.0978 |
| C14U C61U | 1.22 |
| A8C A16U | 1.16 |
| G6U G54U | 0.643 |
| U47C A71C | 0.883 |
| U12C U65C | 0.492 |
| U27C A83G | 0.727 |
| C14U A78G | 0.831 |
| G53C G54U | 1.08 |
| C26G C48G | 1.02 |
| C15U G31A | 0.302 |
| C18A U20G | 0.249 |
| G17U C57G | 0.464 |
| G67U G76A | 1.18 |
| C57G U65A | 1.11 |
| C13U G25U | 0 |
| U46G G50A | 0.525 |
| C15U C22U | 0.35 |
| C21U C44U | 0.62 |
| C41U A77C | 0.341 |
